Assign Confluence Score in VERO E6 cell assay to each entry below.
target: SARS-CoV-2 glycoprotein S (SARS-CoV-2, UniProt P0DTC2 14-1273); test: cell-based or functional assay

Noted for YU505-A01 (antibody, V domains shown) VH: QVQLVQSGAEVKKPGASVKVSCKASGYTFTSYYMHWVRQAPGQGLEWMGIINPSGGSTSYAQKFQGRVTMTRDTSTSTVYMELSSLRSEDTAVYYCARDRHYYDSSGSSQATFLFDYWGQGTLVTVSS VL: QSVLTQPPSVSGAPGQRVTISCTGSSSNIGAGYDVHWYQQLPGTAPKLLIYGNSNRPSGVPDRFSGSKSGTSASLAITGLQAEDEADYYCQSYDSSLNVFGTGTKLTVL : its Confluence Score in VERO E6 cell assay reads > 99%

Noted for YU505-F05 (antibody, V domains shown) VH: EVQLLESGGGVVQPGRSLRLSCAASGFTFSSYGMHWVRQAPGKGLEWVAVMSYDGSKKYYADSVKGRFTISRDNSKNTLYLQMNSLRAEDTAVYYCVTQGMDVWGQGTLVTVSS VL: QSVLTQPPSVSVAPGKTARITCGGNNIGSKSVHWYQQKPGQAPVLVIYYISDRPSGIPERFSGSNSGNTATLTISRVEAGDEAAYYCHVWDSSSDHVVFGGGTKLTVL : its Confluence Score in VERO E6 cell assay reads > 95%

Noted for YU505-A02 (antibody, V domains shown) VH: QVQLVESGAEVKKPGSSVKVSCKASGGTFSSYAISWVRQAPGQGLEWMGGIIPIFGTANYAQKFQGRVTITADESTSTAYMELSSLRSEDTAVYYCARQIWAYDSSGYPVPAEYFQHWGQGTLVTVSS VL: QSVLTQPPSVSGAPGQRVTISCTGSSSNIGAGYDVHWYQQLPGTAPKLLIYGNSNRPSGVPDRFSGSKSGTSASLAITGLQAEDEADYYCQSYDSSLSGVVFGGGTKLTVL : its Confluence Score in VERO E6 cell assay reads > 99%

Noted for YU505-E01 (antibody, V domains shown) VH: QVQLVQSGAEVKKPGSSVKVSCKASGGTFSSYSIVWVRQAPGQGLEWMGGIIPIFGTTNYAQKFQGRVTITADESTSTAFMELSNLKSEDTAVYFCARSLGATRDYWGQGTLVTVSS VL: SYVLTQPPSVSEAPRQRVTISCSGSSSNIGNNAVNWYQQLPGKAPKLLIYYDDLLPSGVSDRFSGSKSGTSASLAISGLQSEDEADYYCAAWDDSLNGPVFGGGTKVTVL : its Confluence Score in VERO E6 cell assay reads > 98%
